These data points were gathered from patent US20230265116A1.

Target: EGFR L858R/T790M/C797S (BaF3-LTC cells) (Homo sapiens, UniProt P00533, C797S/L858R/T790M)
Construct: expressed in transfected cells; host or cells: BaF3
Sequence (P00533 25-1210 T790M/C797S/L858R): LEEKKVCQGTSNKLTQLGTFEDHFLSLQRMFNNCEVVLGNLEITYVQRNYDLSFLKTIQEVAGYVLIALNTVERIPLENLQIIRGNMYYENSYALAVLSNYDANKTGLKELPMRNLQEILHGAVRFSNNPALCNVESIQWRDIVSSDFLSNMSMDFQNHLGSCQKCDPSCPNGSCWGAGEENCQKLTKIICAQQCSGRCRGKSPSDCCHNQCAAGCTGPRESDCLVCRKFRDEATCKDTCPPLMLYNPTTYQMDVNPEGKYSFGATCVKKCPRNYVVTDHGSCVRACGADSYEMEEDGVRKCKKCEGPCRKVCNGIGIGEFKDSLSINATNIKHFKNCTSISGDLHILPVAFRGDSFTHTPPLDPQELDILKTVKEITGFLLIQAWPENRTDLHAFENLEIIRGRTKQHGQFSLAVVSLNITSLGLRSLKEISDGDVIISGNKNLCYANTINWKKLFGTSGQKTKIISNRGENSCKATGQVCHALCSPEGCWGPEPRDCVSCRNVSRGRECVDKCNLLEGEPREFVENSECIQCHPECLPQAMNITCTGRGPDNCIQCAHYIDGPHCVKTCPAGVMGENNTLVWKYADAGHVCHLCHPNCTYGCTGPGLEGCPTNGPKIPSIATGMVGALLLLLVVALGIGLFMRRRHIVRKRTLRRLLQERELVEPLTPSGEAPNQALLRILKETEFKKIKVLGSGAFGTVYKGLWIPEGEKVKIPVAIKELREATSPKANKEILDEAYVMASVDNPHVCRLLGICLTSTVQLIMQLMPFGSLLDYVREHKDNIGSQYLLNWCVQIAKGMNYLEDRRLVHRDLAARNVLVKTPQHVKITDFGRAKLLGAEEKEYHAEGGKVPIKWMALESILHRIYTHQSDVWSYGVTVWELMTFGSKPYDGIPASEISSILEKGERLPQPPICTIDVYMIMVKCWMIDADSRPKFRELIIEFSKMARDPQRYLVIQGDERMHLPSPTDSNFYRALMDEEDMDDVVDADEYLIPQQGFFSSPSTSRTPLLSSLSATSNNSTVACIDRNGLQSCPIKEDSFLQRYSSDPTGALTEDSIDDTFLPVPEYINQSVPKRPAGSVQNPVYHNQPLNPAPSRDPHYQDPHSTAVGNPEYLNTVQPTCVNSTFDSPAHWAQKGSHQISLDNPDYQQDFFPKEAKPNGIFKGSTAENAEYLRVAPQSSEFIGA
Assay: EGFR degradation HTRF assay, BaF3-LTC cells
Assay type: cell-based
Settings: BaF3-LTC, 16h treatment, maximum percentage of degradation; read-out: LTC Dmax (%)
# if measured Dmax < 90%: t  # else: f

[in] Find out if reported Dmax for CCc1cc(Nc2ncc(Br)c(Nc3ccc4ncn(C)c(=O)c4c3P(C)(C)=O)n2)c(OC)cc1N1CCC(N2CCN(CCc3cc(F)c(C4CCC(=O)NC4=O)c(F)c3)CC2)CC1 (stereo not shown) is less than 90%
[out] f

[in] Quick check: Dmax of COc1cc(N2CCC(N3CCN(CCc4ccc(C5CCC(=O)NC5=O)c(F)c4)CC3)CC2)c(C)cc1Nc1ncc(Br)c(Nc2ccc3nccnc3c2P(C)(C)=O)n1 (stereo not shown) under 90%?
[out] t

[in] Is the reported Dmax for CCc1cc(Nc2ncc(Br)c(Nc3ccc4ncn(C)c(=O)c4c3P(C)(C)=O)n2)c(OC)cc1N1CCC(N2CCN(CCc3cccc4c3n(C)c(=O)n4C3CCC(=O)NC3=O)CC2)CC1 (stereo not shown) strictly below 90%?
[out] f

[in] Threshold test, Dmax < 90%: CCc1cc(Nc2ncc(Br)c(Nc3ccc4nc(C)ccc4c3P(C)(C)=O)n2)c(OC)cc1N1CCC(N2CCN(C(=O)CNc3cc(F)c(C4CCC(=O)NC4=O)c(F)c3)CC2)CC1 (stereo not shown)
[out] f

[in] Confirm or reject: Dmax of CCc1cc(Nc2ncc(Br)c(Nc3ccc4nccnc4c3P(C)(C)=O)n2)c(OC)cc1N1CCC(N2CCN(CCN(C)c3ccc4c(c3)C(=O)N(C3CCC(=O)NC3=O)C4)CC2)CC1 (stereo not shown) lies strictly below 90%
[out] t

* * *

Molecular target: EGFR L858R/T790M/C797S (BaF3-LTC cells) (Homo sapiens, UniProt P00533, C797S/L858R/T790M)
Construct: expressed in transfected cells; host or cells: BaF3
Test: EGFR degradation HTRF assay, BaF3-LTC cells
Format: cell-based
Conditions: BaF3-LTC cells; EGFR degradation, IC50 (DC50) from curve fit; read-out: DC50(nM) BaF3-LTC
readout_kind: log10 DC50 (log10 of the value in nM)
Hello, just confirming the data are log10 of DC50 with units of nM.

[in] Report measured log10 DC50; entry is CCOc1cc(N2CCC(N3CCN(CCc4cc(F)c([C@H]5CCC(=O)NC5=O)c(F)c4)CC3)CC2)c(CC)cc1Nc1ncc(Br)c(Nc2ccc3c(=O)n(C)ncc3c2P(C)(C)=O)n1 [Example 502]
[out] 0.48

[in] Note down log10 DC50 recorded for CCc1ccc2c(P(C)(C)=O)c(Nc3nc(Nc4cc(CC)c(N5CCC(N6CCN(C(=O)[C@H]7CN(c8cc(F)c([C@H]9CCC(=O)NC9=O)c(F)c8)CC7(C)C)CC6)CC5)cc4OC)ncc3Br)ccc2n1 [Example 754]
[out] 1.13

[in] Specify measured log10 DC50 for CCOc1cc(N2CCC(N3CCN(CCc4ccc5c(oc(=O)n5C5CCC(=O)NC5=O)c4Cl)CC3)CC2)c(CC)cc1Nc1ncc(Br)c(Nc2ccc3nc(CC)ccc3c2P(C)(C)=O)n1 (stereo not shown) [Example 624] .
[out] 1.34

[in] Input CCOc1cc(N2CCC(N3CCN(CCc4ccc5c(c4)oc(=O)n5C4CCC(=O)NC4=O)CC3)CC2)c(CC)cc1Nc1ncc(Br)c(Nc2ccc3nc(C)c(F)cc3c2P(C)(C)=O)n1 (stereo not shown) [Example 651] , output reported log10 DC50.
[out] 0.33

[in] Look up log10 DC50 of CCc1cc(Nc2ncc(Br)c(Nc3ccc4nc(C)ccc4c3P(C)(C)=O)n2)c(OC)cc1N1CCC(N2CCN(C(=O)CC3CN(c4cc(F)c([C@H]5CCC(=O)NC5=O)c(F)c4)C3)CC2)CC1 (single isomer, unassigned) [Example 573] and report it.
[out] 0.53

[in] Kindly indicate its recorded log10 DC50. Item: CCOc1cc(N2CCC(N3CCN(CCc4cc(F)c([C@H]5CCC(=O)NC5=O)c(F)c4)CC3)CC2)c(CC)cc1Nc1ncc(Br)c(Nc2ccc3nc(C)c(F)cc3c2P(C)(C)=O)n1 [Example 728]
[out] 0.96

[in] Please give measured log10 DC50 of the following entry: CCc1ccc2c(P(C)(C)=O)c(Nc3nc(Nc4cc(CC)c(N5CCC(N6CCN(CCc7cccc8c7n(C)c(=O)n8C7CCC(=O)NC7=O)CC6)CC5)cc4OC4CC4)ncc3Br)ccc2n1 (stereo not shown) [Example 585]
[out] 0.40

[in] Specify reported log10 DC50 for the molecule shown: CCOc1cc(N2CCC(N3CCN(CC4CN(c5cc(F)c([C@H]6CCC(=O)NC6=O)c(F)c5)C4)CC3)CC2)c(CC)cc1Nc1ncc(Br)c(Nc2ccc3c(=O)n(CC)ncc3c2P(C)(C)=O)n1 [Example 551]
[out] 0.79

[in] Supply recorded log10 DC50 for CCOc1cc(N2CCC(N3CCN(CCc4c(F)ccc5c4n(CC)c(=O)n5C4CCC(=O)NC4=O)CC3)CC2)c(CC)cc1Nc1ncc(Br)c(Nc2ccc3nc(CC)ccc3c2P(C)(C)=O)n1 (stereo not shown) [Example 558] here.
[out] 1.12

[in] For the molecule CCOc1cc(N2CCC(N3CCN(CCc4cccc5c4oc(=O)n5C4CCC(=O)NC4=O)CC3)CC2)c(CC)cc1Nc1ncc(Br)c(Nc2ccc3nc(CC)ncc3c2P(C)(C)=O)n1 (stereo not shown) [Example 563] , give its reported log10 DC50.
[out] 0.89
